# measurement.protocol: Pharmacokinetics after 1-hour intravenous infusion (non-compartmental)
# Format: in vivo, human
# run.conditions: human, intravenous; stated as lower in blood compared with plasma; matrix of the range not stated explicitly
# Experimental: Subasumstat PK were evaluated after the first dose on C1D1 and cycle 1 day 8 (C1D8). The parameters included maximum observed plasma concentration (Cmax), time to first occurrence of Cmax, area under the plasma concentration–time curve from time 0 to the last measurable concentration (AUC0–t) or from time 0 extrapolated to time infinity (AUC0–∞), terminal disposition phase half-life, total clearance, and volume of distribution at steady state. […]
readout.name: clearance

Query string: Please give the documented clearance of Cc1sc(C(=O)c2cncnc2N[C@@H]2C[C@H](COS(N)(=O)=O)[C@@H](O)C2)cc1[C@@H]1NCCc2ccc(Cl)cc21 [subasumstat]
Result string: 38.2 to 76 mL/min

----------
# measurement.protocol: Pharmacokinetics after 1-hour intravenous infusion (non-compartmental)
# Type: in vivo, human
# run.conditions: human, whole blood, intravenous; blood; across all dose levels; read-out: Terminal disposition phase half-life
readout.name: half-life

Query string: // fetch half-life given entry Cc1sc(C(=O)c2cncnc2N[C@@H]2C[C@H](COS(N)(=O)=O)[C@@H](O)C2)cc1[C@@H]1NCCc2ccc(Cl)cc21
Result string: 2.87 to 9.19 h

----------
# measurement.protocol: Pharmacokinetics after 1-hour intravenous infusion (non-compartmental)
# Assay type: in vivo, human
# run.conditions: human, intravenous; plasma; across all dose levels; read-out: Terminal disposition phase half-life
readout.name: half-life

Query string: Identify the reported half-life for the following entry. Cc1sc(C(=O)c2cncnc2N[C@@H]2C[C@H](COS(N)(=O)=O)[C@@H](O)C2)cc1[C@@H]1NCCc2ccc(Cl)cc21
Result string: 3.35 to 9.31 h

----------
# measurement.protocol: Pharmacokinetics after 1-hour intravenous infusion (non-compartmental)
# Assay type: in vivo, human
# run.conditions: human, intravenous; stated as lower in blood compared with plasma; matrix of the range not stated explicitly; read-out: Volume of distribution at steady state
readout.name: Vd

Query string: Look up and state reported Vd for Cc1sc(C(=O)c2cncnc2N[C@@H]2C[C@H](COS(N)(=O)=O)[C@@H](O)C2)cc1[C@@H]1NCCc2ccc(Cl)cc21
Result string: 13.7 to 38.8 L
